target: human ether-à-go-go-related gene (hERG) potassium channel (human, UniProt Q12809); assay: primary screen, population patch clamp on CHO cells stably expressing hERG; higher = less effect of the substance;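 note: peak tail current of the secondary pulse compared with the same well before compound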
Sequence (Q12809 whole entry, looked up): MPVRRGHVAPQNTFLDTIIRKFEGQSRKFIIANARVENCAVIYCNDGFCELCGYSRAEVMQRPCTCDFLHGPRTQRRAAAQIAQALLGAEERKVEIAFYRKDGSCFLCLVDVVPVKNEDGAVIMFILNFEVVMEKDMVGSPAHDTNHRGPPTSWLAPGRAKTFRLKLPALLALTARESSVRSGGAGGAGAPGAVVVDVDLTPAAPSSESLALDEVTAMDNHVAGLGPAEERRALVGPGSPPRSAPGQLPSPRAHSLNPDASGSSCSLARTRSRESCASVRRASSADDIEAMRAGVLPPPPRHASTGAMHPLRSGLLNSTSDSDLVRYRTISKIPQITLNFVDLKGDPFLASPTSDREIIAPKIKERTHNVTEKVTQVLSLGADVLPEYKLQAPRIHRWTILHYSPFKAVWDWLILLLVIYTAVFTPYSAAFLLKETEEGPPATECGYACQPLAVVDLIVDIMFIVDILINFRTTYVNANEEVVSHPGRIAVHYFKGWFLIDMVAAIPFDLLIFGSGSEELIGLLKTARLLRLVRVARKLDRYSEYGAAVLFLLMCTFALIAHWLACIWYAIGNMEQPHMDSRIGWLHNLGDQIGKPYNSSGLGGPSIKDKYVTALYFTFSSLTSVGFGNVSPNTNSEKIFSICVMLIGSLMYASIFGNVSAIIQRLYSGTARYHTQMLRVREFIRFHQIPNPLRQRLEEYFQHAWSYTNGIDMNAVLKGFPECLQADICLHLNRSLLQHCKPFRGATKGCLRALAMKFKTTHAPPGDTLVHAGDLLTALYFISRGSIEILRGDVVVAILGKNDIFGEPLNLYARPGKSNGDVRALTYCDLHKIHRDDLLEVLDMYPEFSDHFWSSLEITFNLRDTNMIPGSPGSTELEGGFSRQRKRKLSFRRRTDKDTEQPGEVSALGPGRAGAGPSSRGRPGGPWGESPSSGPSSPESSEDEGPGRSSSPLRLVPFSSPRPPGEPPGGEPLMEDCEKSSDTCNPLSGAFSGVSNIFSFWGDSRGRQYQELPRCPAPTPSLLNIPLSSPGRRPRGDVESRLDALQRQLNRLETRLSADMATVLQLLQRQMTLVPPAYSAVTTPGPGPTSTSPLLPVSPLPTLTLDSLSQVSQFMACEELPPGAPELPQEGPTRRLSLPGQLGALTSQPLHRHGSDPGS
Hit rate of the full screen: of about 310,000 compounds, about 14,000 (4.5%) showed an effect of 50% or more. The effect is printed as a negative number. Many of the other results were omitted from the sample, so strong results are more common in it than they were.
experimental-readout: hERG current change (%, negative = inhibition) at 10uM (%)
Return type: number; implicit unit %.

Some solved entries appear below for comparison.
Clc1ccc(OCCN2CCN(c3ncnc4sccc34)CC2)cc1; -81.2
Cc1sc2ncnc(N3CCN(CCOc4ccc(Cl)cc4)CC3)c2c1C; -9.02
CCN(CC)S(=O)(=O)c1ccc(N2CCN(CCOc3ccc(OC)cc3)CC2)nc1; -46.8

(Q) Using the record for Cc1cc(C)c(C#N)c(N2CCN(CCOc3ccc(Cl)cc3)CC2)n1 , report its hERG current change (%, negative = inhibition) at 10uM.
(A) -33.6

(Q) Follow-up entry: CC1CC(C)CN(S(=O)(=O)N2CCCC(C(=O)NC(C)c3ccccc3)C2)C1 (centres unmarked)
(A) 3.1

###

target: human ether-à-go-go-related gene (hERG) potassium channel (human); test: primary screen, population patch clamp on CHO cells stably expressing hERG; higher = less effect of the substance;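 note: peak tail current of the secondary pulse compared with the same well before compound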
Out of some 310,000 compounds screened, about 14,000 (4.5%) showed an effect of 50% or more. The effect is printed as a negative number. The sample holds strong results, similar compounds and a random draw of the others, so the mix is not that of the screen.
experimental-readout: hERG current change (%, negative = inhibition) at 10uM (%)
Return type: number; implicit unit %.

CC(=O)NC1CC2CCC(C1)N2Cc1ccc(C)cc1 (centres unmarked); -25.4
Cc1ccc(CN2C3CCCC2CC(NC(=O)c2ccc(F)cc2)C3)cc1 (centres unmarked); -74.1
O=C(NC(=S)N1CCN(C/C=C/c2ccccc2)CC1)c1ccc(F)cc1; -43.7
O=C(NCC(=O)N1CCN(S(=O)(=O)/C=C/c2ccccc2)CC1)c1ccc(Cl)cc1; -23.1

(Q) Using the record for Cc1cccc(C(=O)NCC(=O)N2CCN(S(=O)(=O)/C=C/c3ccccc3)CC2)c1 , report its hERG current change (%, negative = inhibition) at 10uM.
(A) -18.5

###

Recorded hERG current change (%, negative = inhibition) at 10uM for the following molecules
Molecular target: human ether-à-go-go-related gene (hERG) potassium channel (human);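 note: peak tail current of the secondary pulse compared with the same well before compound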
Assay: primary screen, population patch clamp on CHO cells stably expressing hERG; higher = less effect of the substance
Description: Briefly, Chinese hamster ovary (CHO) cells stably expressing the hERG channel were dislodged from tissue culture flasks and dispensed into PPC plates. […] During the recording, background leak currents were estimated by a 100 ms step to -80 mV from an initial holding potential of -70 mV and subtracted from the subsequent current measurement. The campaign was conducted in two phases using slight differences in recording protocol. […]
The whole screen tested about 310,000 compounds, of which about 14,000 (4.5%) showed an effect of 50% or more. Effects have a minus sign here. Many of the other results were omitted from the sample, so strong results are more common in it than they were.
Return type: number; implicit unit %.

Some solved entries appear below for comparison.
N#CCCN1CCN(C(CNS(=O)(=O)c2ccc(Cl)cc2)c2ccccc2)CC1 (stereo not drawn); -34.2
CN(C)CCCN(C(=O)c1ccco1)c1nc(-c2ccc(Cl)cc2)cs1.Cl; -72.5
Cc1ccc(-c2csc(N(CCCN(C)C)C(=O)c3ccco3)n2)cc1.Cl; -74.8

(Q) Using the record for O=C(c1ccc(F)cc1)N1CCN(c2ncccn2)CC1 , report its hERG current change (%, negative = inhibition) at 10uM.
(A) -1.2

(Q) Follow-up entry: CCOC(=O)c1[nH]c(C)c(C(=O)OCC(=O)N2c3ccccc3CC2C)c1C (stereo not drawn)
(A) -0.0968

(Q) Follow-up entry: CN(C(=O)c1ccco1)c1nc(-c2ccc(Cl)cc2)cs1
(A) 8.09

(Q) Follow-up entry: COc1ccc(-n2c(Cc3cc(=O)[nH]c(=O)[nH]3)nnc2SCC(=O)Nc2cc(C(F)(F)F)ccc2Cl)cc1
(A) -3.73

(Q) Follow-up entry: COCCCN(C(=O)c1ccco1)c1nc(-c2ccc(OC)cc2)cs1
(A) 1.81

(Q) Follow-up entry: Cl.O=C(c1ccco1)N(CCCN1CCOCC1)c1nc(-c2ccc(Cl)cc2)cs1
(A) -13.4

Values compiled from paper PMC4336329.
